System: OVCAR-8 ovarian
Test: NCI-60 one-dose screen, 48 h (100 = growth as untreated, 0 = no growth, -100 = all killed)
Details: 10 µM unless noted
Compounds without any hit were thinned out: in the full panel of roughly 83,000, 20% have a hit.
Quick rule: growth of at least 30% means t, below that means f.

[[record]]
smiles_record = "COc1cc(C(=O)c2c(-c3ccccc3)oc3c(OC)cccc23)cc(OC)c1O"
label_value = "f"

[[record]]
smiles_record = "COc1ccc(C/C(C)=C(/c2ccc(OCCN3CCCCCC3)cc2)c2ccc(OC(=O)NCc3ccccc3)cc2)cc1"
label_value = "t"

[[record]]
smiles_record = "O=C(N/N=C/c1ccc([N+](=O)[O-])cc1)c1ccc2nc(-c3ccc(Cl)cc3)[nH]c2c1"
label_value = "f"

[[record]]
smiles_record = "Cc1ccc2[nH]c(-c3ccc(S(C)(=O)=O)cc3)c(/C=N/N=C(N)N)c2c1"
label_value = "t"

[[record]]
smiles_record = "O=C(Nc1cccnc1Nc1ccc(Cl)cc1)c1cn(Cc2ccc(F)cc2)nn1"
label_value = "t"

[[record]]
smiles_record = "CCOC(=O)Nc1nc2ccc(SCC(C)C)cc2s1"
label_value = "t"

[[record]]
smiles_record = "Cn1cc(-c2nonc2-c2c[nH]c3ccccc23)c2ccccc21"
label_value = "f"

[[record]]
smiles_record = "O=C(N=Nc1c(O)[nH]c2ccccc12)Nc1ccc(Cl)cc1"
label_value = "t"

[[record]]
smiles_record = "Cc1cc(C)cc(Nc2ccc([N+](=O)[O-])c(NCCN3CCOCC3)n2)c1"
label_value = "f"

[[record]]
smiles_record = "Cc1c2cc[nH]c(=O)c2c(C)c2c1[nH]c1ccc(OC(=O)c3ccccc3)cc12"
label_value = "f"


* * *

Measured growth of individual entries
System: NCI/ADR-RES ovarian
Assay: NCI-60 one-dose screen, 48 h (100 = growth as untreated, 0 = no growth, -100 = all killed)
Details: 10 µM unless noted
Compounds without any hit were thinned out: in the full panel of roughly 83,000, 20% have a hit.
QUANTITY NAME: growth (%)

[[record]]
compound = "CC1(C)CCC(S(=O)(=O)c2ccc3c(c2)/C(=N\\O)c2cc(S(=O)(=O)N4CCN(c5ccc(F)cc5O)CC4)ccc2-3)CC1"
assay_result = -3.41

[[record]]
compound = "CC(C)CCSc1nc(Nc2ccccc2)c(C#N)c(-c2ccccc2)n1"
assay_result = 52.4

[[record]]
compound = "CCN1C(=S)N(CC)C2C1NC(=S)N2/N=C/C=C/c1ccccc1OC (stereo unspecified)"
assay_result = -9.38

[[record]]
compound = "COC(=O)c1c2c(n3ccc(C)cc13)C(=O)c1ccccc1C2=O"
assay_result = 72.8

[[record]]
compound = "CCN(CC)c1ccc(/C=N/NC(=O)c2ccc(Nc3ccnc(C(F)(F)F)c3)cc2)c(O)c1"
assay_result = 26.3

[[record]]
compound = "CCC(C)Nc1ccc(NC(C)CC)cc1 (stereo unspecified)"
assay_result = 94.5

[[record]]
compound = "COc1ccc(Nc2ncccc2NC(=O)c2cn(Cc3cccc(Oc4ccccc4)c3)nn2)cc1OC"
assay_result = 77

[[record]]
compound = "COc1ccc2c(c1)c(-c1nonc1-c1cn(C)c3ccc(OC)cc13)cn2C"
assay_result = 22.3

[[record]]
compound = "O=C(/C=C/C12c3ccccc3C(c3ccccc31)C1C(=O)NC(=O)C12)c1ccc(F)cc1 (stereo unspecified)"
assay_result = 5.4

[[record]]
compound = "COc1ccc(/C=C/C(=O)c2cc3c(N)c(C(=O)Nc4ccc(OC)cc4)sc3nc2C)cc1"
assay_result = 6.34

[[record]]
compound = "O=c1oc2c(cnc3ccccc32)cc1-c1cccs1"
assay_result = 104

[[record]]
compound = "CCN(CC)CCOc1nc2c3ccc(Cl)cc3nn2c2ccccc12"
assay_result = 25.3

[[record]]
compound = "CCNCc1ccc(O)c2ncccc12"
assay_result = 27.3

[[record]]
compound = "Cc1ccccc1OCC(O)COc1ccccc1C"
assay_result = 111

[[record]]
compound = "Cc1ccc(C)c2c1C(O)(C#Cc1ccccc1)c1ccccc1C2(O)C#Cc1ccccc1 (stereo unspecified)"
assay_result = 71.1

[[record]]
compound = "CCOC(=O)c1c(NC(=O)CSc2n[nH]c3nc4ccccc4n23)sc(CC)c1C"
assay_result = 95.2

[[record]]
compound = "COc1ccc(-c2nnc(SCC(=O)Nc3ccc(/C(C)=N\\O)cc3)n2-c2ccccc2)cc1OC"
assay_result = 90.6

[[record]]
compound = "COc1cccc(OC)c1Oc1c(-c2nc3ccccc3s2)c(C)nn1-c1ccccc1"
assay_result = 64.7

[[record]]
compound = "O=C(Cn1nnc2ccccc21)Nc1ccc(-c2nc3ccccc3s2)cc1"
assay_result = 96.2

[[record]]
compound = "c1ccc(CCc2ccccc2-c2cc(-c3ccccc3)on2)cc1"
assay_result = 98.3

[[record]]
compound = "O=C1Nc2ccccc2/C1=C/c1cn(C[C@@H](O)Cn2c3ccccc3c(=O)c3ccccc32)c2ccccc12"
assay_result = 85.4

